Target: Growth hormone secretagogue receptor type 1 (Homo sapiens, UniProt Q92847)
Sequence (Q92847 whole entry): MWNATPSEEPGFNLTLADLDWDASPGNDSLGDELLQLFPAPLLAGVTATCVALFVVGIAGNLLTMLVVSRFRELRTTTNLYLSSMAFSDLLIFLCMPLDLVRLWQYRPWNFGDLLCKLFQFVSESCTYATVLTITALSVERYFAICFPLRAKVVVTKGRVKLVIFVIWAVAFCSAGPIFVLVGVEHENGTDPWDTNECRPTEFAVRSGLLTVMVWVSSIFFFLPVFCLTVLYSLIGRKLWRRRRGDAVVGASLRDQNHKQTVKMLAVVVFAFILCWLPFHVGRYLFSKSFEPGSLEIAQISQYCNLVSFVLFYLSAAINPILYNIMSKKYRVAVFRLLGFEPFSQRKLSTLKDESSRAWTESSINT
Assay: Inhibition of human GHS receptor by FLIPR
Type: functional
Measurement name: IC50 (nM)

Sample answers from the record:
CCc1nc(N)nc(NC)c1-c1ccc(NCc2ccc(S(C)(=O)=O)cc2)cc1 : 69
CS(=O)(=O)c1ccc(CNc2ccc(-c3c(N)nc(N)nc3C3CCCC3)cc2)cc1 : 21

1: CC(C)c1nc(N)nc(N)c1-c1ccc(NCc2ccc(S(C)(=O)=O)cc2)cc1
2: CS(=O)(=O)c1ccc(CNc2ccc(-c3c(N)nc(N)nc3[C@@H]3CC4C=CC3C4)cc2)cc1 (stereo not given in full)
3: CS(=O)(=O)c1ccc(CNc2ccc(-c3c(N)nc(N)nc3C3Cc4ccccc4O3)cc2)cc1 (stereo not given)
Q: List by increasing IC50. Answer by naming the labels in the order asked.
A: 1, 3, 2
(1: 14 nM, 3: 38 nM, 2: 283 nM)

###

Target: Growth hormone secretagogue receptor type 1 (Homo sapiens)
Test: Inhibition of human GHS receptor by binding assay
pIC50: −log10 of the molar value.
Measurement name: pIC50

CS(=O)(=O)c1ccc(CNc2ccc(-c3c(N)nc(N)nc3CNc3ccc(F)cc3)cc2)cc1 : 8.82
CCCCCCCCc1nc(N)nc(N)c1-c1ccc(NCc2ccc(S(C)(=O)=O)cc2)cc1 : 8.28

I: CC(C)Cc1nc(N)nc(N)c1-c1ccc(NCc2ccc(S(C)(=O)=O)cc2)cc1
II: CCCCCc1nc(N)nc(N)c1-c1ccc(NCc2ccc(S(C)(=O)=O)cc2)cc1
III: CN(Cc1ccccc1)Cc1nc(N)nc(N)c1-c1ccc(NCc2ccc(S(C)(=O)=O)cc2)cc1
IV: CS(=O)(=O)c1ccc(CNc2ccc(-c3c(N)nc(N)nc3CNCc3ccccc3)cc2)cc1
V: CCc1nc(N)nc(N(CC)CC)c1-c1ccc(NCc2ccc(S(C)(=O)=O)cc2)cc1
Q: List by increasing pIC50. Answer by naming the labels in the order asked.
A: V, IV, II, I, III
(V: 6.35, IV: 7.02, II: 7.72, I: 8.00, III: 8.40)

###

Target: Growth hormone secretagogue receptor type 1 (Homo sapiens, UniProt Q92847)
Experiment: Inhibition of human GHS receptor by binding assay
Measurement name: IC50 (nM)

Sample answers from the record:
CCc1nc(N)nc(NCCO)c1-c1ccc(NCc2ccc(S(C)(=O)=O)cc2)cc1 : 354
CCc1nc(N)nc(NC)c1-c1ccc(NCc2ccc(S(C)(=O)=O)cc2)cc1 : 37
CN(Cc1nc(N)nc(N)c1-c1ccc(NCc2ccc(S(C)(=O)=O)cc2)cc1)c1ccccc1 : 2.5

I: CS(=O)(=O)c1ccc(CNc2ccc(-c3c(N)nc(N)nc3CCC(=O)NCc3cccc(Cl)c3)cc2)cc1
II: CCc1nc(N)nc(N)c1-c1ccc(NCc2ccc(S(C)(=O)=O)cc2)cc1
Q: Lower value of IC50 belongs to which: I or II ? Mark your answer with the label of the selected entry.
A: I
(I: 2 nM, II: 9.7 nM)

###

Biological target: Growth hormone secretagogue receptor type 1 (Homo sapiens, UniProt Q92847)
Assay: Inhibition of human GHS receptor by FLIPR
Type: functional
Measurement name: IC50 (µM)

CS(=O)(=O)c1ccc(CNc2ccc(-c3c(N)nc(N)nc3CNC3CCCC3)cc2)cc1 : 3.43
CS(=O)(=O)c1ccc(CNc2ccc(-c3c(N)nc(N)nc3COCc3ccccc3)cc2)cc1 : 0.0071
CS(=O)(=O)c1ccc(CNc2ccc(-c3c(N)nc(N)nc3CNCC3CCCC3)cc2)cc1 : 0.316
CCc1nc(N)nc(N(CC)CC)c1-c1ccc(NCc2ccc(S(C)(=O)=O)cc2)cc1 : 0.38

a: CCCCCCc1nc(N)nc(N)c1-c1ccc(NCc2ccc(S(C)(=O)=O)cc2)cc1
b: CCc1nc(N)nc(N(C)C)c1-c1ccc(NCc2ccc(S(C)(=O)=O)cc2)cc1
c: CS(=O)(=O)c1ccc(CNc2ccc(-c3c(N)nc(N)nc3C3COc4ccccc4O3)cc2)cc1 (centres undefined)
Q: // sort entries: IC50, high to low Answer by naming the labels in the order asked.
A: b, c, a
